- system name: MK-801 binding site of the N-methyl-D-aspartate receptor (NMDAR)
- experiment description: NMDAR radioligand binding with [3H]MK-801, Method B
- Parameters: species or system Sprague Dawley rat
- assay conditions: MK-801 site, Method B, male Sprague Dawley rat cortex, 5.0 nM [3H]MK-801; read-out: NMDAR Ki ± SEM
Entries annotated with measured pKi
Remember, pKi is on a log scale: it is -log10 of the molar concentration.

These solved cases illustrate the format of a correct answer.
CCN(CC)[C@@]1(c2ccccc2)CCCCC1=O [Compound 25R]
5.26
O=C1CCCC[C@]1(c1ccccc1)N1CCC1 [Compound 84R]
5.64
CN[C@@]1(c2ccccc2)CCCCC1=O [Compound 14R]
5.35
COCCNC1(c2ccccc2)CCCCC1=O (racemic) [Compound 29rac]
5.36
[2H]C([2H])([2H])N[C@]1(c2ccccc2)CCCCC1=O [Compound 88S]
6.10

Attention now turns to another entry.
Prompt line: Requested read-out: pKi. Entry: CNC1(c2ccc(F)cc2)CCCCC1=O (racemic) [Compound 18rac]
Response line: 5.35
